Data credit: the RNAGym collection of RNA variant scans (doi:10.7554/elife.90254)

B1: LINE1-full (parent)
chain: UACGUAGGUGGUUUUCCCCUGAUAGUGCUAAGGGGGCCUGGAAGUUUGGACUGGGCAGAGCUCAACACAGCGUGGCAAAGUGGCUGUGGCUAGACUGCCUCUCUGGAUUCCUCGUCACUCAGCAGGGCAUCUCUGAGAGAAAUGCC

# Variants of: B1
# testSummary: self-cleavage, relative activity (ratio to wild type); higher = more cleavage; in vitro, sequencing; the parent is a self-cleaving ribozyme
endpointLabel: self-cleavage

Known self-cleavage results, listed for orientation:
monomerSequence	experimentalValue
UACGUAGGUGGUUUUCCCCUGAUAGUGCUAAGGGGGCCUGGAAGUAUGGACUGGGCAGAGCUCAACACAGCGUGGCAAAGUGGCUGUGGCUAGACUGCCUCUCUGGAUUCCUCGUCACUCAGCAGGGCAUCUCUGGGAGAAAUGCC [U46A A136G]	1.48
UACGUAGGUGGGUUUCCCCUGAUAGUGCUAAGGGGGCCUGGAAGUUUGGACUGGGCAGAGCUCAACACAGCGUGGCAAAGUGGCUGUGGCUAGACUGCCUCUCUGGAUUCCUCGUCACUCAGCAGGGCAUCCCUGAGAGAAAUGCC [U12G U132C]	1.02
UACGUAGGUGGUUUUCACCUGAUAGUGCUAAGGGGGCCUGGAAGUUUGGACUGGGCAGAGCUCAACACAGCGUGGCAAAGUGGCUGUGGCUAGACUGCCUCUCUGGAUUCCUCGUCACUCAGCAGGGCAUCUCUGAGAGAAAUGCC [C17A]	1.27
UACGUAGGUGGUUUUCCCCUGAUAGUGCUAAGGGGGCCUGGAAGUUUGGACUGGGCAGAGCUCAUCACAGCGUGGCAAGGUGGCUGUGGCUAGACUGCCUCUCUGGAUUCCUCGUCACUCAGCAGGGCAUCUCUGAGAGAAAUGCC [A65U A79G]	0.21
UACGUAGGUGGUUUUCCCCUGAUAGCGCUAAGGGGGCCUGGAAGUUUGGACUGGGCAGAGCUCAACACAGCGUGGCAAAGUGGCUGUGGCUAGACUGCCUCUCUGGAUUCCUCGUCACUCAGCAGGGCAUCUCUGAGAGAAAUCCC [U26C G144C]	1.68
UACGUAGGUGGUAUUCCCCUGAUAGUGCUAAGGGGGCCUGGAAGUUUGGACUGGGCAGAGCUCAACACAGCGUGGCAAAGUGGCUGUGGCUAGACUGCCUCUCUGGAUUCCUCGUCACUCAGCAGGGCAUCUCUGAGAGGAAUGCC [U13A A140G]	0.52
UACGUAGGUGGUUUUCCCCUGAUAGUGCUAAGGGGGCCUGGAAGUUUGGACUGGGCAGAGCUCAACACAGCGUGGCAAAGUGGCUGUGGCUAGACCGCCUCUCUGGAUUCCUCGUCACUCAGCAGGGCAUCUCUGAGUGAAAUGCC [U96C A138U]	0.1
UACGUAGGUGGUGUUCCCCUGAUAGUGCUAAGGGGGCCUGGAAGUUUGGACUGGGCAAAGCUCAACACAGCGUGGCAAAGUGGCUGUGGCUAGACUGCCUCUCUGGAUUCCUCGUCACUCAGCAGGGCAUCUCUGAGAGAAAUGCC [U13G G58A]	0.17
UACGUAGGUGGUUUUCCCCUGAUAGUGCUAAGGGGGCCUGGAAGUUUGGACUGGGCAGAGCUCAACACAGCGUGGCUAAGUGGCUGUGGCUAGUCUGCCUCUCUGGAUUCCUCGUCACUCAGCAGGGCAUCUCUGAGAGAAAUGCC [A77U A94U]	0.2
UACGUAGGUGGUUUUCCCCUGGUAGUACUAAGGGGGCCUGGAAGUUUGGACUGGGCAGAGCUCAACACAGCGUGGCAAAGUGGCUGUGGCUAGACUGCCUCUCUGGAUUCCUCGUCACUCAGCAGGGCAUCUCUGAGAGAAAUGCC [A22G G27A]	1

Output self-cleavage of UACGUAGGUGGUUUUCCCCUGAUAGUGCUAAGGGGGCCUGGAAGUUUGGACUGGGCAGAGCUCAACACAGCGUGGCAAAGUGGCUGUGGCUAGACCGCCUCUCUGGAUUCUUCGUCACUCAGCAGGGCAUCUCUGAGAGAAAUGCC [U96C C111U]
0.12

Output self-cleavage of UACGUAGGUGGUUUUCCCCUGAUAGUGCUAAGGGGGCCUGGAAGUUUGGACUGGGCAGAGCUCAACACAGCGUGGCAAAGUGGCUGUGGCUAGACUGCCUCUCUGGAUUCCACGUCACUCAGCAGGGCAUCUCAGAGAGAAAUGCC [U112A U134A]
1.09

Output self-cleavage of UAUGUAGGUGGUUUUCCCCUGAUAGUGCUAAGGGGGCCUGGAAGUUUGGACUGGGCAGAGCUCAACACGGCGUGGCAAAGUGGCUGUGGCUAGACUGCCUCUCUGGAUUCCUCGUCACUCAGCAGGGCAUCUCUGAGAGAAAUGCC [C3U A69G]
0.53
